- Tested on: SNB-75
- assayInfo: NCI tumour cell line growth inhibition, 48 h
Activity calls are given as the source filed them. Rule as the data show it: active = GI50 up to about 1.1 µM and inactive = higher.
Answer with one of the outcomes active, inactive

# compound, targetUnderTest, label
records = [
    ("O=C(Cc1ccccc1)c1ccc2[nH]c(=O)oc2c1", "SNB-75", "active"),
    ("COc1ccc2c(c1)CC[C@@H]1[C@@H]2CC[C@]2(C)/C(=N/OCCN3CCCCC3)CC[C@@H]12", "SNB-75", "inactive"),
    ("CN(CC(=O)O)S(=O)(=O)c1ccc(Cl)cc1", "SNB-75", "inactive"),
    ("O=C(OCc1ccccc1)C(Cc1ccc(OCc2ccccc2)cn1)NC(=O)C(F)(F)F (configuration not stated)", "SNB-75", "inactive"),
    ("O=C(O)/C=C/C(=O)N1Cc2cc3ccccc3nc2C1", "SNB-75", "inactive"),
]

Query: # outcome recorded in this test, key = "CCOP(=O)(OCC)/C(=C\n1ccc(=O)[nH]c1=S)C(=O)OC"
Result: inactive

Query: # outcome recorded in this test, key = "COc1cc2c3c(cc(Cl)nc3c1OC)C(=O)C(=O)N2"
Result: inactive

Query: # outcome recorded in this test, key = "CC1=CC(=O)C(=C(C)C)CC1"
Result: inactive

Query: # outcome recorded in this test, key = CN(C)CCN(C)CC1COC(C)(C)O1 (configuration not stated)
Result: inactive

Query: # outcome recorded in this test, key = CC(C)C1OC(=O)C=C1Sc1ccccc1 (configuration not stated)
Result: inactive

Query: # outcome recorded in this test, key = "Cn1c(=O)c2ccccc2c2nc3ccccc3nc21"
Result: inactive

Query: # outcome recorded in this test, key = "O=P(O)(Cc1ccccc1)c1ccccc1-c1ccccc1"
Result: inactive

###

# reported GI50; entries follow
- Test system: 786-0
- assayInfo: NCI tumour cell line growth inhibition, 48 h
Active and inactive are the calls of the source. Rule as the data show it: active = GI50 up to about 1.1 µM and inactive = higher.

Sample answers from the record:
# compound, GI50
measured = [
    ("Oc1ccc2ccccc2c1Cc1c(O)ccc2ccccc12", "21.1 µM (inactive)"),
    ("CCC(C)[C@@H](NC1=C(Cl)C(=O)c2c(O)ccc(O)c2C1=O)C(=O)OC (some centres not stated)", "2.43 µM (inactive)"),
    ("COc1cccc(/C=C2/Sc3scc(-c4ccccc4)[n+]3C2=O)c1O", "15.2 µM (inactive)"),
    ("COc1ccc(-c2oc3cc(OC)ccc3c(=O)c2O)cc1", "9.02 µM (inactive)"),
    ("Cn1/c(=N\\N=C2\\C=C3CCCCC3(C)CC2)sc2ccccc21 (configuration not stated)", "> 100 µM (inactive)"),
    ("CCOC(=O)/N=C(\\N)SCc1ccccc1", "> 100 µM (inactive)"),
]

The compound "N#Cc1cnc(-n2[nH]c3c(c2=O)CCCC3)[nH]c1=O" showed GI50 equal to 49.2 µM (inactive)

The compound O=C1C(Cl)C(c2ccc(O)cc2)N1n1cnc2ccccc2c1=O (configuration not stated) showed GI50 equal to 28.8 µM (inactive)

The compound "C=C(Br)CN(C#N)CC(=C)Br" showed GI50 equal to > 100 µM (inactive)

The compound "O=CN/C=C/c1ccccc1O" showed GI50 equal to > 100 µM (inactive)

The compound "c1ccc2c(c1)/C(=N\NC1=NCCN1)c1nc3ccccc3nc1-2" showed GI50 equal to 3.91 µM (inactive)

The compound "CC(C)(C)c1ccc2c(c1)OCc1n[nH]c(n1)COc1cc(C(C)(C)C)ccc1OCCOCCO2" showed GI50 equal to 4.45 µM (inactive)
